system: SN12C renal; experiment: NCI tumour cell line growth inhibition, 48 h
Overview of reported TGI across a group of compounds:

Worked cases, answers included:
COMPOUND | ASSAYED TARGET | TGI
Nc1nc(N)c2cc(S(=O)(=O)c3ccc4ccccc4c3)ccc2n1 | SN12C renal | > 100 µM
COP12(OC)NC(=O)OC1(C(F)(F)F)c1ccccc1O2 (configuration not stated) | SN12C renal | > 100 µM
Cc1cc(C)c(NS(=O)c2ccc(Cl)cc2)c(C)c1 (configuration not stated) | SN12C renal | > 100 µM
Cc1cn(CC(=S)NCCc2c[nH]c3ccccc23)c(=O)[nH]c1=O | SN12C renal | > 100 µM
Nc1ccc(Oc2ccc(C34CC5C6CC7(c8ccc(Oc9ccc(N)cc9)cc8)CC5C(C3)C(C7)C6C4)cc2)cc1 | SN12C renal | > 100 µM
NC1=NC(c2ccc(Cl)cc2)=CC(c2cccc(Cl)c2)S1 (configuration not stated) | SN12C renal | 85.2 µM
COc1ccc(/C=C2/SC(=Nc3ccccc3)N(NC(=O)Cc3ccccc3)C2=O)cc1 | SN12C renal | > 100 µM
COc1cc(-c2oc3c(OC)c(O)c(OC)c(O)c3c(=O)c2OC)cc(OC)c1OC | SN12C renal | > 100 µM

Q) Name the recorded TGI of the compound listed here: CN(C)c1n2c3ccc([N+](=O)[O-])cc3n3c(N(C)C)[n+]4ccccc4c3c2c2cccc[n+]12
A) > 100 µM

Q) Name the recorded TGI of the compound listed here: Nc1ccc(-c2nc3ccccc3s2)cc1CO
A) > 100 µM

Q) Name the recorded TGI of the compound listed here: CCOC(=O)C#Cc1cccc(C#CC(=O)OCC)c1
A) 8.21 µM

Q) Name the recorded TGI of the compound listed here: CCc1ccc(Oc2c(-c3ccc(OCCc4cccc(C(F)(F)F)c4)cc3O)n[nH]c2C(F)(F)F)cc1
A) 8.35 µM

Q) Name the recorded TGI of the compound listed here: c1ccc2c(c1)nc1ccccn12
A) > 100 µM
